- System: BMP signal in MDA-231-D-BREFluc/Rluc cells
- assay.explanation: BMP signal inhibitory effect (AlphaScreen SureFire SMAD1 p-Ser463/465, BMP-6 stimulation)
- Format: cell-based
- conditions.used: BMP-6 stimulated MDA-231-D-BREFluc/Rluc cells, phospho-SMAD1 AlphaScreen; read-out: IC50
- Method: BMP Signal Inhibitory Effect A BMP signal inhibitory activity of a compound of the present invention was evaluated according to the following method. MDA-231-D-BREFluc/Rluc cells prepared according to the method described in Y. Katsuno et al., Oncogene, 27, 6322 (2008) were incubated at 37° C. for 2 hours together with test compounds, and BMP-6 (commercially available from R&D System, 507-BM-020) was then added thereto, and the mixture was additionally incubated at 37° C. for 30 minutes. […]
property.name: pIC50
For clarity, pIC50 is expressed as the negative log10 of concentration in mol/L.

input: Give reported pIC50 value for COCCN1CCN(c2ccc(Nc3nccc(-c4cn(Cc5ccccc5C#N)nc4-c4cccnc4)n3)cc2)CC1
output: 7.74

input: Give reported pIC50 value for CCn1cc(-c2ccnc(Nc3ccc4c(c3)CCN(CC(=O)O)C4)n2)c(-c2cccnc2)n1
output: 7.42

input: Give reported pIC50 value for COCCN1CCN(c2ccc(Nc3nccc(-c4cn(CCOC)nc4-c4cccnc4)n3)cc2)CC1
output: 7.50

input: Give reported pIC50 value for CC(C)N1CCN(C(=O)c2ccc(Nc3nccc(-c4cn(Cc5ccc(F)cc5)nc4-c4cccnc4)n3)cc2)CC1
output: 7.71

input: Give reported pIC50 value for COCCN1CCN(c2ccc(Nc3nccc(-c4cn(CC(C)(C)O)nc4-c4cccnc4)n3)cc2)CC1
output: 7.68

input: Give reported pIC50 value for CCn1cc(-c2ccnc(Nc3ccc(N4CCN(CC5CC5)CC4)cc3)n2)c(-c2cccnc2)n1
output: 8.11

input: Give reported pIC50 value for CCn1cc(-c2ccnc(Nc3ccc4c(c3)CCN(C3COC3)CC4)n2)c(-c2cccnc2)n1
output: 8.00

input: Give reported pIC50 value for CCn1cc(-c2ccnc(Nc3ccc(N4CCNCC4)c(C)c3)n2)c(-c2cccnc2)n1
output: 8.15
